# % inhibition at 100 µM values compiled below
biological target: Chymotrypsin, from human pancreas (human, UniProt P17538 19-263); assay: cell-based or functional assay
Sequence (P17538 19-263): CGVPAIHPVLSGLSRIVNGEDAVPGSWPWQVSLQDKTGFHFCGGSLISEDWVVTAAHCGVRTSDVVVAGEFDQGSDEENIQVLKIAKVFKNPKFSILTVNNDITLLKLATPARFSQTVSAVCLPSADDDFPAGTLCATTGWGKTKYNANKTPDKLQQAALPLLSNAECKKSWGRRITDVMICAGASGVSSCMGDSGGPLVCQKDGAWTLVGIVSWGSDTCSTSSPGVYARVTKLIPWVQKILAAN
Provide only the numeric value, understood in %.

binder	% inhibition at 100 µM (%)
ICTKSDPPXCR (HELM PEPTIDE1{I.C.T.K.S.D.P.P.[Nle].C.R.[dP].P}$PEPTIDE1,PEPTIDE1,2:R3-10:R3|PEPTIDE1,PEPTIDE1,1:R1-13:R2$$$V2.0; SMILES CCCC[C@@H]1NC(=O)[C@@H]2CCCN2C(=O)[C@@H]2CCCN2C(=O)[C@H](CC(=O)O)NC(=O)[C@H](CO)NC(=O)[C@H](CCCCN)NC(=O)[C@H]([C@@H](C)O)NC(=O)[C@@H]2CSSC[C@H](NC1=O)C(=O)N[C@@H](CCCNC(=N)N)C(=O)N1CCC[C@@H]1C(=O)N1CCC[C@H]1C(=O)N[C@@H]([C@@H](C)CC)C(=O)N2) [Example 19]	0

Now, please, on to the next binder.
Q: Could you please provide reported % inhibition at 100 µM for ICTKSDPPXCR (HELM PEPTIDE1{I.C.T.K.S.D.P.P.[Nle].C.R.[dP].P}$PEPTIDE1,PEPTIDE1,2:R3-10:R3|PEPTIDE1,PEPTIDE1,1:R1-13:R2$$$V2.0; SMILES CCCC[C@@H]1NC(=O)[C@@H]2CCCN2C(=O)[C@@H]2CCCN2C(=O)[C@H](CC(=O)O)NC(=O)[C@H](CO)NC(=O)[C@H](CCCCN)NC(=O)[C@H]([C@@H](C)O)NC(=O)[C@@H]2CSSC[C@H](NC1=O)C(=O)N[C@@H](CCCNC(=N)N)C(=O)N1CCC[C@@H]1C(=O)N1CCC[C@H]1C(=O)N[C@@H]([C@@H](C)CC)C(=O)N2) [Example 57] ? Thanks!
Ans: 0
